Values from paper PMC11501026

Experiment: in situ brain/choroid plexus perfusion: CNS uptake of [^3H]-arginine, [^3H]-ADMA and [^14C]-sucrose (multiple-time and single-time uptake analysis)
Details: male, BALB/c, mouse, hypothalamus, Difference (ADMA minus Sucrose), 2.5 mins, 5ml/min; individual mouse
Where a name gives a salt, the structure may show the parent alone.
readout type: Kp at […]
Give bare numbers.

query: # input compound: CN(C)C(N)=NCCC[C@H](N)C(=O)O [ADMA, N^G,N^G-dimethylarginine dihydrochloride] ; wanted: its Kp at […]
result: 0.0965

====

Assay: capillary depletion analysis after in situ brain perfusion
Assay type: in vivo, mouse
Settings: male, BALB/c, mouse, capillary depletion supernatant (brain parenchyma), Difference (ADMA minus Sucrose), supernatant, 2.5 mins, 5ml/min; mean
Where a name gives a salt, the structure may show the parent alone.
readout type: Kp at […]
Give bare numbers.

query: # input molecule: CN(C)C(N)=NCCC[C@H](N)C(=O)O [ADMA, N^G,N^G-dimethylarginine dihydrochloride] ; wanted: its Kp at […]
result: 0.0483
